Test system: CP191
procedure.details: qHTS profiling for inhibitors of Plasmodium falciparum proliferation (AID 504749); further: nearly all actives have a fitted effect of over 60% in size
recorded.conditions: P. falciparum in erythrocytes, SYBR Green DNA, 72 h; series mostly up to 28.7 µM
Method: NIH National Institute of Allergy and Infectious Diseases [NIAID] NIH Chemical Genomics Center [NCGC] […] Because mature erythrocytes lack DNA, only Plasmodium-derived DNA is detected. NCGC Assay Protocol Summary: The SYBR Green viability assay was adapted from a method described previously (Plouffe et al., 2008). […] The following morning, fluorescence intensity at 485(14) nm excitation and 535(25) nm emission wavelengths was measured on an EnVision (Perkin Elmer) plate reader. […]
Results filed as inconclusive are left out. Activity calls are given as the source filed them. The call rests on the fitted dose curve; in most records, active means well fitted inhibition curve with a large enough effect; inconclusive means small, poorly fitted or top-dose-only effect; inactive means flat fitted curve, though single readings scatter.
Thanks in advance; please answer with one of these: yes (1) (active), no (0) (inactive)

Prompt line: Identify the outcome logged in this assay for the compound shown: COC(=O)[C@H]1[C@H]2CC3c4[nH]c5ccccc5c4CCN3C[C@@H]2CC[C@@H]1O (stereo partly specified)
Response line: no (0)

Prompt line: Assay outcome for CCCCCCCC/C=C\CCCCCCCC(=O)O : what was it?
Response line: no (0)

Prompt line: For this compound, state the assay outcome: CCCCCCOc1ccc(C(=N)N(CCCC)CCCC)c2ccccc12
Response line: yes (1)

Prompt line: Hey, what did the test say about CCCCCCCCCCCC[n+]1ccc2ccccc2c1 ?
Response line: yes (1)

Prompt line: Look up the recorded call for Cc1c(C)c2c(c(C)c1O)CC[C@@](C)(CCC[C@H](C)CCC[C@H](C)CCCC(C)C)O2 in this test.
Response line: no (0)

Prompt line: Which outcome did this test record for the compound COC(=O)CCC(=O)CN ?
Response line: no (0)
